- TEST METHOD NOTES: Hydrogen peroxide scavenging assay
- EXPERIMENTAL PARAMETERS: Comp. Conc. 1000 µg/mL; mean ± S.E.M, n = 3
- Method: In addition to DPPH the ligand acids and their complexes were also evaluated for their peroxide scavenging ability test. Hydrogen peroxide (H2O2) is a biologically important, non-radical reactive oxygen species (ROS) that can influence several cellular processes. It is a weak oxidizing agent and can inactivate a few enzymes directly, usually via oxidation of essential thiol (-SH) groups. […]
ASSAY ENDPOINT: H2O2 free radical scavenging ability (%)

- SMILES REPR: "N#Cc1ccncc1.N#Cc1ccncc1.O=C([O-])Cc1cccc(Cl)c1.O=C([O-])Cc1cccc(Cl)c1.O=C([O-])Cc1cccc(Cl)c1.O=C([O-])Cc1cccc(Cl)c1.[Cu+2].[Cu+2]"
  VALUE OBSERVED: 84.83
- SMILES REPR: "O=C([O-])Cc1ccccc1Cl.O=C([O-])Cc1ccccc1Cl.O=C([O-])Cc1ccccc1Cl.O=C([O-])Cc1ccccc1Cl.Oc1ccncc1.Oc1ccncc1.[Cu+2].[Cu+2]"
  VALUE OBSERVED: 84.39
- SMILES REPR: "N#Cc1ccncc1.N#Cc1ccncc1.O=C([O-])Cc1ccccc1Cl.O=C([O-])Cc1ccccc1Cl.O=C([O-])Cc1ccccc1Cl.O=C([O-])Cc1ccccc1Cl.[Cu+2].[Cu+2]"
  VALUE OBSERVED: 93.55
- SMILES REPR: "O=C([O-])Cc1cccc(Cl)c1.O=C([O-])Cc1cccc(Cl)c1.O=C([O-])Cc1cccc(Cl)c1.O=C([O-])Cc1cccc(Cl)c1.Oc1ccncc1.Oc1ccncc1.[Cu+2].[Cu+2]"
  VALUE OBSERVED: 83.53
- SMILES REPR: "N#Cc1cccnc1.N#Cc1cccnc1.O=C([O-])Cc1ccccc1Cl.O=C([O-])Cc1ccccc1Cl.O=C([O-])Cc1ccccc1Cl.O=C([O-])Cc1ccccc1Cl.[Cu+2].[Cu+2]"
  VALUE OBSERVED: 80.30

---

- TEST METHOD NOTES: DPPH scavenging assay
- EXPERIMENTAL PARAMETERS: Comp. Conc. 250 µg/mL; mean ± S.E.M, n = 3
Entries and their DPPH Free Radical Scavenging Ability values follow.
ASSAY ENDPOINT: DPPH Free Radical Scavenging Ability (%)

- SMILES REPR: "N#Cc1cccnc1.N#Cc1cccnc1.O=C([O-])Cc1cccc(Cl)c1.O=C([O-])Cc1cccc(Cl)c1.O=C([O-])Cc1cccc(Cl)c1.O=C([O-])Cc1cccc(Cl)c1.[Cu+2].[Cu+2]"
  VALUE OBSERVED: 73.34
- SMILES REPR: "O=C([O-])Cc1ccccc1Cl.O=C([O-])Cc1ccccc1Cl.O=C([O-])Cc1ccccc1Cl.O=C([O-])Cc1ccccc1Cl.Oc1ccncc1.Oc1ccncc1.[Cu+2].[Cu+2]"
  VALUE OBSERVED: 66.33
- SMILES REPR: "N#Cc1ccncc1.N#Cc1ccncc1.O=C([O-])Cc1ccccc1Cl.O=C([O-])Cc1ccccc1Cl.O=C([O-])Cc1ccccc1Cl.O=C([O-])Cc1ccccc1Cl.[Cu+2].[Cu+2]"
  VALUE OBSERVED: 86.98
- SMILES REPR: "N#Cc1cccnc1.N#Cc1cccnc1.O=C([O-])Cc1ccccc1Cl.O=C([O-])Cc1ccccc1Cl.O=C([O-])Cc1ccccc1Cl.O=C([O-])Cc1ccccc1Cl.[Cu+2].[Cu+2]"
  VALUE OBSERVED: 67.44
- SMILES REPR: "N#Cc1ccncc1.N#Cc1ccncc1.O=C([O-])Cc1cccc(Cl)c1.O=C([O-])Cc1cccc(Cl)c1.O=C([O-])Cc1cccc(Cl)c1.O=C([O-])Cc1cccc(Cl)c1.[Cu+2].[Cu+2]"
  VALUE OBSERVED: 71.46
- SMILES REPR: "O=C([O-])Cc1cccc(Cl)c1.O=C([O-])Cc1cccc(Cl)c1.O=C([O-])Cc1cccc(Cl)c1.O=C([O-])Cc1cccc(Cl)c1.Oc1ccncc1.Oc1ccncc1.[Cu+2].[Cu+2]"
  VALUE OBSERVED: 68.75

---

- ASSAYED TARGET: butyrylcholinesterase (BChE) (Equus caballus, UniProt P81908)
- Sequence (P81908 whole entry): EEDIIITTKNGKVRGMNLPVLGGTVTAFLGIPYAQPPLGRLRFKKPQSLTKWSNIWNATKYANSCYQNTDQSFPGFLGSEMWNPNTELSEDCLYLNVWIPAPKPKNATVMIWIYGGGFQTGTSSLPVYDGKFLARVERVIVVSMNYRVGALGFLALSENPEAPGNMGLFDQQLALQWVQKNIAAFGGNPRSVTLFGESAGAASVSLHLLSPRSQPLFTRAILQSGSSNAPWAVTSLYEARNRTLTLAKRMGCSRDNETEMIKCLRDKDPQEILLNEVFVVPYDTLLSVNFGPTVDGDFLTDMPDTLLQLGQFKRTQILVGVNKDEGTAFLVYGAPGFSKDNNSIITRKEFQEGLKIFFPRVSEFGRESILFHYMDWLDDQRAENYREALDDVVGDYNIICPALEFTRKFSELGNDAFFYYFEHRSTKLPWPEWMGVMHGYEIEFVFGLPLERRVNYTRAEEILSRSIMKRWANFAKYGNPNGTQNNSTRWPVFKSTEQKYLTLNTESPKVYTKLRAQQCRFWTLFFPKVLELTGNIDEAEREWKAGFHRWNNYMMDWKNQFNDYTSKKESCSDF
- TEST METHOD NOTES: biochemical
- EXPERIMENTAL PARAMETERS: Comp. Conc. 1000 µg/mL; n = 3
Label 1.0 when inhibition of butyrylcholinesterase (% BChE activity) is at or above 80%; otherwise label 0.0.

- COMPOUND: "N#Cc1ccncc1.N#Cc1ccncc1.O=C([O-])Cc1cccc(Cl)c1.O=C([O-])Cc1cccc(Cl)c1.O=C([O-])Cc1cccc(Cl)c1.O=C([O-])Cc1cccc(Cl)c1.[Cu+2].[Cu+2] [Complex 5, Cu2(3-ClC6H4COO)4(4-CNPy)2]"
  ASSAYED TARGET: "butyrylcholinesterase (BChE) (Equus caballus, UniProt P81908)"
  ASSIGNED LABEL: 1.0
- COMPOUND: "O=C([O-])Cc1cccc(Cl)c1.O=C([O-])Cc1cccc(Cl)c1.O=C([O-])Cc1cccc(Cl)c1.O=C([O-])Cc1cccc(Cl)c1.Oc1ccncc1.Oc1ccncc1.[Cu+2].[Cu+2] [Complex 6, Cu2(3-ClC6H4COO)4(4-OHPy)2]"
  ASSAYED TARGET: "butyrylcholinesterase (BChE) (Equus caballus, UniProt P81908)"
  ASSIGNED LABEL: 0.0
- COMPOUND: "O=C([O-])Cc1ccccc1Cl.O=C([O-])Cc1ccccc1Cl.O=C([O-])Cc1ccccc1Cl.O=C([O-])Cc1ccccc1Cl.Oc1ccncc1.Oc1ccncc1.[Cu+2].[Cu+2] [Complex 3, Cun(2-ClC6H4COO)4(4-OHPy)2]"
  ASSAYED TARGET: "butyrylcholinesterase (BChE) (Equus caballus, UniProt P81908)"
  ASSIGNED LABEL: 0.0

---

- ASSAYED TARGET: butyrylcholinesterase (BChE) (Equus caballus, UniProt P81908)
- TEST METHOD NOTES: biochemical

- SMILES REPR: "O=C(O)Cc1cccc(Cl)c1"
  ASSAYED TARGET: "butyrylcholinesterase (BChE) (Equus caballus, UniProt P81908)"
  IC50 / µM: 234

---

Entries and their inhibition of butyrylcholinesterase (% BChE activity) values follow.
- ASSAYED TARGET: butyrylcholinesterase (BChE) (Equus caballus)
- TEST METHOD NOTES: biochemical
- EXPERIMENTAL PARAMETERS: Comp. Conc. 62.5 µg/mL; n = 3
ASSAY ENDPOINT: inhibition of butyrylcholinesterase (% BChE activity) (%)

- SMILES REPR: "N#Cc1cccnc1.N#Cc1cccnc1.O=C([O-])Cc1ccccc1Cl.O=C([O-])Cc1ccccc1Cl.O=C([O-])Cc1ccccc1Cl.O=C([O-])Cc1ccccc1Cl.[Cu+2].[Cu+2]"
  ASSAYED TARGET: "butyrylcholinesterase (BChE) (Equus caballus)"
  VALUE OBSERVED: 64.53
- SMILES REPR: "N#Cc1cccnc1.N#Cc1cccnc1.O=C([O-])Cc1cccc(Cl)c1.O=C([O-])Cc1cccc(Cl)c1.O=C([O-])Cc1cccc(Cl)c1.O=C([O-])Cc1cccc(Cl)c1.[Cu+2].[Cu+2]"
  ASSAYED TARGET: "butyrylcholinesterase (BChE) (Equus caballus)"
  VALUE OBSERVED: 68.52
- SMILES REPR: "N#Cc1ccncc1.N#Cc1ccncc1.O=C([O-])Cc1ccccc1Cl.O=C([O-])Cc1ccccc1Cl.O=C([O-])Cc1ccccc1Cl.O=C([O-])Cc1ccccc1Cl.[Cu+2].[Cu+2]"
  ASSAYED TARGET: "butyrylcholinesterase (BChE) (Equus caballus)"
  VALUE OBSERVED: 66.29
- SMILES REPR: "O=C([O-])Cc1ccccc1Cl.O=C([O-])Cc1ccccc1Cl.O=C([O-])Cc1ccccc1Cl.O=C([O-])Cc1ccccc1Cl.Oc1ccncc1.Oc1ccncc1.[Cu+2].[Cu+2]"
  ASSAYED TARGET: "butyrylcholinesterase (BChE) (Equus caballus)"
  VALUE OBSERVED: 60.2
- SMILES REPR: "O=C([O-])Cc1cccc(Cl)c1.O=C([O-])Cc1cccc(Cl)c1.O=C([O-])Cc1cccc(Cl)c1.O=C([O-])Cc1cccc(Cl)c1.Oc1ccncc1.Oc1ccncc1.[Cu+2].[Cu+2]"
  ASSAYED TARGET: "butyrylcholinesterase (BChE) (Equus caballus)"
  VALUE OBSERVED: 57.00
- SMILES REPR: "N#Cc1ccncc1.N#Cc1ccncc1.O=C([O-])Cc1cccc(Cl)c1.O=C([O-])Cc1cccc(Cl)c1.O=C([O-])Cc1cccc(Cl)c1.O=C([O-])Cc1cccc(Cl)c1.[Cu+2].[Cu+2]"
  ASSAYED TARGET: "butyrylcholinesterase (BChE) (Equus caballus)"
  VALUE OBSERVED: 72.74

---

- ASSAYED TARGET: butyrylcholinesterase (BChE) (Equus caballus)
- TEST METHOD NOTES: biochemical
- EXPERIMENTAL PARAMETERS: Comp. Conc. 250 µg/mL; n = 3
- Procedure: The enzymes acetylcholinesterase (AChE) and butyrylcholinesterase (BChE) play an important role in the transfer of signals and physiological function. They assist acetylcholine to hydrolyze and produce choline and acetyl group in synaptic region. So, they are considered as targets in the management of Alzheimer’s disease. Herein, the compounds under study were evaluated for their potential to inhibit acetylthiocholine iodide (AChI) and butyrylthiocholine iodide (BChI) enzymes. […]
Entries and their inhibition of butyrylcholinesterase (% BChE activity) values follow.
ASSAY ENDPOINT: inhibition of butyrylcholinesterase (% BChE activity) (%)

- SMILES REPR: "N#Cc1ccncc1.N#Cc1ccncc1.O=C([O-])Cc1ccccc1Cl.O=C([O-])Cc1ccccc1Cl.O=C([O-])Cc1ccccc1Cl.O=C([O-])Cc1ccccc1Cl.[Cu+2].[Cu+2]"
  VALUE OBSERVED: 72.83
- SMILES REPR: "N#Cc1cccnc1.N#Cc1cccnc1.O=C([O-])Cc1ccccc1Cl.O=C([O-])Cc1ccccc1Cl.O=C([O-])Cc1ccccc1Cl.O=C([O-])Cc1ccccc1Cl.[Cu+2].[Cu+2]"
  VALUE OBSERVED: 71.75
- SMILES REPR: "N#Cc1cccnc1.N#Cc1cccnc1.O=C([O-])Cc1cccc(Cl)c1.O=C([O-])Cc1cccc(Cl)c1.O=C([O-])Cc1cccc(Cl)c1.O=C([O-])Cc1cccc(Cl)c1.[Cu+2].[Cu+2]"
  VALUE OBSERVED: 77.61
- SMILES REPR: "N#Cc1ccncc1.N#Cc1ccncc1.O=C([O-])Cc1cccc(Cl)c1.O=C([O-])Cc1cccc(Cl)c1.O=C([O-])Cc1cccc(Cl)c1.O=C([O-])Cc1cccc(Cl)c1.[Cu+2].[Cu+2]"
  VALUE OBSERVED: 81.48
- SMILES REPR: "O=C([O-])Cc1ccccc1Cl.O=C([O-])Cc1ccccc1Cl.O=C([O-])Cc1ccccc1Cl.O=C([O-])Cc1ccccc1Cl.Oc1ccncc1.Oc1ccncc1.[Cu+2].[Cu+2]"
  VALUE OBSERVED: 68.2
- SMILES REPR: "O=C([O-])Cc1cccc(Cl)c1.O=C([O-])Cc1cccc(Cl)c1.O=C([O-])Cc1cccc(Cl)c1.O=C([O-])Cc1cccc(Cl)c1.Oc1ccncc1.Oc1ccncc1.[Cu+2].[Cu+2]"
  VALUE OBSERVED: 65.00
